target.under.test: Oxysterols receptor LXR-alpha (Homo sapiens) (UniProt Q13133)
Sequence (Q13133 whole entry, looked up): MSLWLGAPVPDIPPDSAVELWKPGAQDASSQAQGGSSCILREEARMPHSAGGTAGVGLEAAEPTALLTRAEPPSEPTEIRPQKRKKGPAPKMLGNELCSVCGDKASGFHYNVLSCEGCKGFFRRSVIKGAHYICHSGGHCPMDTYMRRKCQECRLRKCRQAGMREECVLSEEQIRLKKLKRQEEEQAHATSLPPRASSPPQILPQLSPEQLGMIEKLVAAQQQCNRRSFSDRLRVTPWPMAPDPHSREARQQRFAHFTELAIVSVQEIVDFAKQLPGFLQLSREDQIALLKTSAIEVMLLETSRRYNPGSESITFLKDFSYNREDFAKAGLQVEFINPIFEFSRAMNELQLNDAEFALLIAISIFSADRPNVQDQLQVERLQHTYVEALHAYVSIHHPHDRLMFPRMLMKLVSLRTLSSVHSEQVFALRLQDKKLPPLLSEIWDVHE
test.summary: ATG_LXRa_TRANS: Attagene TRANS-FACTORIAL HepG2 Assay for human Liver X Receptor alpha (LXRa) (AID 2282980)
applied.conditions: HepG2 Attagene TRANS reporter, LXRa transactivation
Records with an inconclusive call do not appear. The source made the active and inactive calls. Rule for the calls: active = hit-call score of the fitted dose curve at least 0.9, where 1 is the maximum; inconclusive = response in the unintended direction; inactive = score below 0.9.
Labels: active, inactive

INSERT INTO measurements (compound, qualitative_label) VALUES
  ('CC1=NNC(=O)N(/N=C/c2cccnc2)C1', 'inactive'),
  ('CON=C(C(=O)OC)c1ccccc1CON=C(C)c1cccc(C(F)(F)F)c1', 'inactive'),
  ('C#CC(C)(C)NC(=O)c1cc(Cl)cc(Cl)c1', 'inactive'),
  ('C=C(C)[C@H]1Cc2c(ccc3c2O[C@@H]2COc4cc(OC)c(OC)cc4[C@@H]2C3=O)O1', 'inactive'),
  ('O=c1ccc(=O)[nH][nH]1', 'inactive'),
  ('CC(C)=CC1C(C(=O)OCN2C(=O)C3=C(CCCC3)C2=O)C1(C)C (configuration not stated)', 'inactive'),
  ('CCC(=O)Nc1ccc(Cl)c(Cl)c1', 'inactive'),
  ('CCNc1nc(Cl)nc(NC(C)(C)C#N)n1', 'inactive'),
  ('CN(C)NC(=O)CCC(=O)O', 'inactive'),
  ('CNc1cnn(-c2cccc(C(F)(F)F)c2)c(=O)c1Cl', 'inactive'),
  ('CCOP(=S)(OCC)Oc1cc(C)nc(C(C)C)n1', 'inactive'),
  ('CCOP(=S)(Oc1cnc(C(C)(C)C)nc1)OC(C)C (configuration not stated)', 'active');

====

test.summary: CCTE_Mundy_HCI_hNP1_Pro_ResponderAvgInten: CCTE's Proliferation Assay in human neuroprogenitor cells, Mundy Lab (AID 2284224);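 note: human neural progenitor cells hNP1 derived from WA09 embryonic stem cells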
Results filed as inconclusive are left out. Activity calls are given as the source filed them. Rule for the calls: active = hit-call score of the fitted dose curve at least 0.9, where 1 is the maximum; inconclusive = response in the unintended direction; inactive = score below 0.9.
value.kind: outcome

INSERT INTO results (molecule_smiles, result) VALUES
  ('CCCSP(=O)(OCC)SCCC', 'inactive'),
  ('CCOP(=S)(OCC)SCCSCC', 'inactive'),
  ('CN1COCN(Cc2cnc(Cl)s2)C1=N[N+](=O)[O-]', 'inactive');

====

test.summary: CCTE_Mundy_HCI_hNP1_CellTiter: CCTE's Cell Titer-Glo 2 Assay in human neuroprogenitor cells for Viability, Mundy Lab (AID 2284241)
Results filed as inconclusive are left out. Calls of active or inactive are those of the source. Rule for the calls: active = hit-call score of the fitted dose curve at least 0.9, where 1 is the maximum; inconclusive = response in the unintended direction; inactive = score below 0.9.
Labels: label 1 for active, label 0 for inactive

INSERT INTO assay_data (compound, qualitative_label) VALUES
  ('CN1COCN(Cc2cnc(Cl)s2)C1=N[N+](=O)[O-]', 'label 0'),
  ('CCOP(=S)(Oc1cnc(C(C)(C)C)nc1)OC(C)C (stereo not given)', 'label 0'),
  ('CON=C(C(=O)OC)c1ccccc1CON=C(C)c1cccc(C(F)(F)F)c1', 'label 1'),
  ('CCOP(=O)(NC(C)C)Oc1ccc(SC)c(C)c1 (stereo not given)', 'label 1'),
  ('C=C(C)[C@H]1Cc2c(ccc3c2O[C@@H]2COc4cc(OC)c(OC)cc4[C@@H]2C3=O)O1', 'label 1');

====

Read-out: CYP4A11 (gene 1579)
test.summary: LTEA_HepaRG_CYP4A11: Life Technologies and Expression Analysis (LTEA) Assay for CYP4A11 using HepaRG (AID 2283486)
applied.conditions: mRNA level, 48 h; actives raise or lower the signal
Active and inactive are the calls of the source. The calls were made as follows: active = hit-call score of the fitted dose curve at least 0.9, where 1 is the maximum; inactive = score below 0.9.
value.kind: AC50

INSERT INTO results (compound, result) VALUES
  ('CSc1nc(NC(C)C)nc(NC(C)C)n1', '31 µM (active)'),
  ('CCCCN(CC)c1c([N+](=O)[O-])cc(C(F)(F)F)cc1[N+](=O)[O-]', 'inactive'),
  ('CC(COc1ccc(Oc2ccccc2)cc1)Oc1ccccn1 (stereo not given)', '12.5 µM (active)'),
  ('C[N+]1(C)CCCCC1', 'inactive'),
  ('CC(C)=CC1C(C(=O)OCN2C(=O)C3=C(CCCC3)C2=O)C1(C)C (stereo not given)', 'inactive'),
  ('CCOP(=S)(Oc1cnc(C(C)(C)C)nc1)OC(C)C (stereo not given)', '50 µM (active)'),
  ('CNC(=O)ON=C(C)SC', 'inactive'),
  ('CCc1cccc(CC)c1N(COC)C(=O)CCl', 'inactive'),
  ('CSC1=N[C@@](C)(c2ccccc2)C(=O)N1Nc1ccccc1', '27.1 µM (active)'),
  ('CC[C@H](C)[C@H]1O[C@]2(C=C[C@@H]1C)C[C@@H]1C[C@@H](C/C=C(\C)[C@@H](O[C@H]3C[C@H](OC)[C@@H](O[C@H]4C[C@H](OC)[C@@H](NC)[C@H](C)O4)[C@H](C)O3)[C@@H](C)/C=C/C=C3\CO[C@@H]4[C@H](O)C(C)=C[C@@H](C(=O)O1)[C@]34O)O2', '11.7 µM (active)');
